# Test Method Notes: Metabolic stability in human liver microsomes assessed as compound remaining at 1 uM at 60 mins by LC/MS/MS analysis in absence of NADPH
# Format: ADME, Microsome
# Settings: liver microsomes, read-out: Stability
Readings of remaining at 1 h, 1 µM for the listed compounds
I only need the number, in %, no unit after it.

# example entries with known answers
>  <Compound String>
CC(=O)O[C@@H]([C@H]1C[C@@H](C)[C@H]2[C@H](O1)[C@H](O)[C@@]1(C)[C@@H]3CC[C@H]4C(C)(C)[C@@H](OC(=O)N5CCOCC5)CC[C@@]45C[C@@]35CC[C@]21C)C(C)(C)O

>  <Property Label>
remaining at 1 h, 1 µM

>  <Value Measured>
2

$$$$
>  <Compound String>
C[C@@H]1C[C@H]([C@H](O)C(C)(C)O)O[C@H]2[C@H]1[C@@]1(C)CC[C@@]34C[C@@]35CC[C@H](O[C@H]3CNCCO3)C(C)(C)[C@@H]5CC[C@H]4[C@]1(C)[C@H]2O

>  <Property Label>
remaining at 1 h, 1 µM

>  <Value Measured>
112

$$$$

Please supply the value of reported remaining at 1 h, 1 µM for the item C[C@@H]1C[C@H]([C@H](O)C(C)(C)O)O[C@H]2[C@H]1[C@@]1(C)CC[C@@]34C[C@@]35CC[C@H](O[C@H]3CN(C6COC6)CCO3)C(C)(C)[C@@H]5CC[C@H]4[C@]1(C)[C@H]2O
107

Hello, please tell me recorded remaining at 1 h, 1 µM for this one: CC(C)[C@@H](OC(N)=O)[C@H]1C[C@@H](C)[C@H]2[C@H](O1)[C@H](O)[C@@]1(C)[C@@H]3CC[C@H]4C(C)(C)[C@@H](OC(=O)N5CCC5)CC[C@@]45C[C@@]35CC[C@]21C
106

All figures here come from ChEMBL document CHEMBL2203235.
